Assay: Half life in dog
Format: ADME, organism-based, Canis lupus familiaris
Details: in vivo
experimental-endpoint: half-life (h)

> print(dat)
                                smiles.text  experimental.endpoint  value.measured
1  C[C@@H](NC(=O)c1cc(-c2ccc(Cl)cn2)cc(C(C)(C)O)c1)c1ccc(C(F)(F)F)[n+]([O-])c1              half-life             3.9

---

Test: Intrinsic clearance in rat
Type: ADME, organism-based
Conditions: in vivo
Please note: CLint scaled exactly at 500 mL/min/kg is FALSE. Only values below 500 mL/min/kg get TRUE.

> print(dat)
                                smiles.text  category
1  Cc1ccc(-c2cc(C(=O)N[C@H](C)c3ccc(C(F)(F)F)[n+]([O-])c3)cc(C(C)(C)O)c2)cc1     FALSE
2  Cc1ccc(-c2cc(C(=O)N[C@H](C)c3ccc(F)cn3)cc(C3=NO[C@H](c4ccccn4)C3)c2)nc1      TRUE
3  Cc1ccc(-c2cc(C(=O)N[C@H](C)c3ccc(F)cn3)cc(N3CCOCC3)c2)nc1     FALSE
4  Cc1ccc(-c2cc(C(=O)N[C@H](C)c3ccc(F)cn3)cc(-c3ncccc3F)c2)nc1     FALSE
5  Cc1ccc(-c2cc(C(=O)N[C@H](C)c3ccc(F)cn3)cc(-n3nccn3)c2)nc1     FALSE
6  C[C@@H](NC(=O)c1cc(-c2ccc(Cl)cn2)cc(C(C)(C)O)c1)c1ccc(C(F)(F)F)[n+]([O-])c1      TRUE
7  C[C@@H](NC(=O)c1cc(-c2ccc(F)cn2)cc(C(C)(C)O)c1)c1ccc(C(F)(F)F)[n+]([O-])c1      TRUE
8  C[C@@H](NC(=O)c1cc(-c2ccc(Cl)cc2)cc(C(C)(C)O)c1)c1ccc(C(F)(F)F)[n+]([O-])c1      TRUE
